Kindly supply the reported activation at 100 µM values for the records listed here.
Molecular target: Drosophila OR98a (Drosophila melanogaster)
Construct: expressed in transfected cells
Sequence (Q9VAZ3 1-397): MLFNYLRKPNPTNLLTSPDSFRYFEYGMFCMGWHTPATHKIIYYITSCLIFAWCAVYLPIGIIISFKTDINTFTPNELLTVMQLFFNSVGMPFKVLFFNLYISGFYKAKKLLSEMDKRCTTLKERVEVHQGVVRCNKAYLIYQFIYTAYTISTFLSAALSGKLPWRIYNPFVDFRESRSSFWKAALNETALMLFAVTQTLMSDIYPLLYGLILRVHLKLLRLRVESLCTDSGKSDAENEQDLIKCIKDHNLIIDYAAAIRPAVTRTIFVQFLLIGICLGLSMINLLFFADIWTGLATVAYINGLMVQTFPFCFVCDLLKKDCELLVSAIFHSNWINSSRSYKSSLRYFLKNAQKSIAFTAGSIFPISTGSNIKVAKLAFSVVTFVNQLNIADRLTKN
Sequence (Q9VNB5 1-486 partner): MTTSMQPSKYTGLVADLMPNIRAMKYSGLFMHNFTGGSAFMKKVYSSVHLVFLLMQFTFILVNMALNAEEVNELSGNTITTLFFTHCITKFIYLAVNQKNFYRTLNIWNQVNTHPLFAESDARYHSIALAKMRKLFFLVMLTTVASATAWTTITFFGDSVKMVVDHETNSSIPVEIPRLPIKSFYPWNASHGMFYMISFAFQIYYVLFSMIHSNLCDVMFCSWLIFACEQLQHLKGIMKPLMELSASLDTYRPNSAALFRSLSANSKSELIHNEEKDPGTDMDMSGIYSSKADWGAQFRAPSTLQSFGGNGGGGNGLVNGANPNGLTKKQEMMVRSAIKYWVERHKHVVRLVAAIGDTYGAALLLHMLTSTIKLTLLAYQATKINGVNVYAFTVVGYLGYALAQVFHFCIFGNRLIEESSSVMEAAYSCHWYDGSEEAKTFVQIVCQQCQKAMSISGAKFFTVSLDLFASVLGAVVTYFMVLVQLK
Test: Calcium ion fluorescence (GCaMP6) assay, OR98a stable HEK293 cell line;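 further: ligand concentrations in µM final VOC concentration in well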
Format: cell-based
Settings: HEK293, read-out: Average response
Give bare numbers, in %.

| compound | measurement-kind | unit | value-reported |
| --- | --- | --- | --- |
| CCCCCOC(C)=O [pentyl acetate] | activation at 100 µM | % | 14 |

Give activation at 100 µM for each of the items listed below.
1. COC(=O)c1ccccc1O [methyl salicylate]
2. Cc1cccc(O)c1

[4, 6]

Give activation at 100 µM for each of the items listed below.
1. CCOC(=O)CC [ethyl propionate]
2. CCCCCCCCCC=O
3. CCOC(=O)c1ccccc1 [ethyl benzoate]
4. CCCCCC(C)O (stereo not shown)

1.5
0
20
16

* * *

Biological target: Drosophila OR71a (Drosophila melanogaster, UniProt Q9VUK5)
Construct: expressed in transfected cells
Sequence (Q9VUK5 whole entry, one chain of several): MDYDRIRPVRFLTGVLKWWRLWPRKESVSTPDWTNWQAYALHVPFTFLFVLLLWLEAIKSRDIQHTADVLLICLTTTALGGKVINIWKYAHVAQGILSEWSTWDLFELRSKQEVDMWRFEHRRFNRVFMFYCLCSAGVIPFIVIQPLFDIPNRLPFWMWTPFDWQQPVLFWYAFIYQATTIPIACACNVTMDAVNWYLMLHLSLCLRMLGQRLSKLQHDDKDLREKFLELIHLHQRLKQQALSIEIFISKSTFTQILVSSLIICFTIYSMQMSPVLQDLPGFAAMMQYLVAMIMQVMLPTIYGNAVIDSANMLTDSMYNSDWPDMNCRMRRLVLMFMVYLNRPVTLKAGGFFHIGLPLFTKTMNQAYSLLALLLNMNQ
Experiment: Calcium ion fluorescence (GCaMP6) assay, OR71a stable HEK293 cell line
Assay type: cell-based
Details: concentration 100; normalized fluorescence change, values below 0.05 threshold given as 0
Method: These VUAA1 normalized ∆F values were used to compare the different receptors and ligands. The concentration-dependent effect of the reference ligands on their cognate cell lines was examined in more detail. Twelve different ligand concentrations were measured on each cell line in an overall 0.01 μM to 100 μM concentration range with 5 repetitions with three technical replicates each time. […]
Kindly supply the reported DF norm AVERAGE OR71a values for the records listed here.
Give bare numbers.

| compound | measurement-kind | value-reported |
| --- | --- | --- |
| CCCCCC(O)CC (stereo not drawn) [3-octanol] | DF norm AVERAGE OR71a | 0 |

Give DF norm AVERAGE OR71a for each of the items listed below.
1. C=CC(O)CCCCC (stereo not drawn) [1-octen-3-ol]
2. CCCCCO [1-pentanol]
3. C=C1[C@H]2CC[C@@H]3[C@H]2C(C)(C)CCC[C@]13C [(+)-longifolene]
4. CCCCCCCCC(CO)CCCCCC (stereo not drawn) [2-hexyl-1-decanol]
5. CC1=CCC[C@@]2(C)[C@@H]3CC[C@]12CC3(C)C [(−)-α-neoclovene]

0.05555
0
0
0
0

Give DF norm AVERAGE OR71a for each of the items listed below.
1. COc1cccc(OC)c1 [1,3-dimethoxy benzene]
2. C=C(C)[C@H]1CC=C(C)CC1 [(R)-(+)-limonene]
3. CCCCCC(C)O (stereo not drawn) [2-heptanol]
4. C=C1CC/C=C(\C)CC[C@@H]2[C@@H]1CC2(C)C [(-)-trans-caryophyllene]
5. CCCCCC(C)=O [2-heptanone]

1. 0
2. 0
3. 0.1631
4. 0
5. 0.05175

Measured DF norm AVERAGE OR71a of CCCCC(C)O (stereo not drawn) [2-hexanol] : 0
